# ASSAYED_SYSTEM: hGIPR (Homo sapiens)
# Construct: expressed in transfected cells; host or cells: CHO cells carrying a CRE-luciferase reporter gene
# Sequence (P48546 22-466): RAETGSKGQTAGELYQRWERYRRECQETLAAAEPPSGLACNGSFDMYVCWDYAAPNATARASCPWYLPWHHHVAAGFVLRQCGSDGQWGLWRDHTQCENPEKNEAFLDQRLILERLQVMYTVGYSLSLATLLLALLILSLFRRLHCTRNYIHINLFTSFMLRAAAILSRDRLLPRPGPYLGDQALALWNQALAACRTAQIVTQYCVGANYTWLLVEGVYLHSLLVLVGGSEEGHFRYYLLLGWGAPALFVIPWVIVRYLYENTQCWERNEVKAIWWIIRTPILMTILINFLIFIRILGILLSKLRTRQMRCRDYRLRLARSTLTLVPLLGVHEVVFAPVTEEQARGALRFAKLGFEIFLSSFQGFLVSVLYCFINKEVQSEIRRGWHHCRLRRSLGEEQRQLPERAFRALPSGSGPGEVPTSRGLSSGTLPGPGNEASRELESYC
# MEASUREMENT_NOTES: hGIPR CreLuc reporter gene assay in 0.5% and 100% plasma
# Type: cell-based
# TEST_CONTEXT: CreLuc reporter gene assay, 0.5% human plasma; read-out: hGIPR 0.5% hP
Starred links: 1 amine or outer side, 2 acyl side, 3 side chain; linkers in the order of their positions; H or OH if unused. Non-standard residues stand in square brackets, D forms with d. Groups on a side chain read outwards from the residue. *: point of attachment. C20 diacid = O=C(O)CCCCCCCCCCCCCCCCCCC(=O)*; C18 diacid = O=C(O)CCCCCCCCCCCCCCCCC(=O)*; γGlu = O=C(O)[C@H](CCC(=O)[*:2])N[*:1]; εLys = N[C@@H](CCCCN[*:1])C(=O)[*:2]; Aib = CC(C)(N)C(=O)O
MEASUREMENT_NAME: pEC50
pEC50 here is simply -log10 of the concentration when that concentration is written in mol/L.

{"SUBSTANCE": "H-Y[Aib]EGTFTSDYSI[Aib]LEKQAE[Aib]AFVQWLIK([εLys-γGlu-γGlu-γGlu-γGlu-C18 diacid])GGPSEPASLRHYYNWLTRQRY-NH2 [Compound 54]", "ASSAYED_SYSTEM": "hGIPR (Homo sapiens)", "pEC50": 9.62}
{"SUBSTANCE": "H-Y[Aib]EGTFTSDYSI[Aib]LEKQAQ[Aib]EFVEWLIK([εLys-γGlu-γGlu-γGlu-γGlu-γGlu-γGlu-γGlu-C20 diacid])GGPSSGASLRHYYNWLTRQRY-NH2 [Compound 88]", "ASSAYED_SYSTEM": "hGIPR (Homo sapiens)", "pEC50": 9.28}
{"SUBSTANCE": "H-Y[Aib]EGTFTSDYSI[Aib]LEKQAQ[Aib]AFVEWLIK([εLys-γGlu-γGlu-γGlu-γGlu-γGlu-γGlu-C20 diacid])GGPSSGASLLHYYNWLTRQRY-NH2 [Compound 210]", "ASSAYED_SYSTEM": "hGIPR (Homo sapiens)", "pEC50": 9.55}
{"SUBSTANCE": "H-Y[Aib]EGTFTSDYSI[Aib]LEKQAQ[Aib]EFVEWLIK([γGlu-γGlu-γGlu-γGlu-γGlu-γGlu-C20 diacid])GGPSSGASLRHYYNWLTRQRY-NH2 [Compound 198]", "ASSAYED_SYSTEM": "hGIPR (Homo sapiens)", "pEC50": 9.59}

Now consider a different substance.
# get_value(readout='pEC50', item= H-Y[Aib]EGTFTSDYSI[Aib]LEKQAQ[Aib]AFVEWLIK([εLys-γGlu-γGlu-γGlu-γGlu-γGlu-γGlu-C20 diacid])GGPSSGASLRHY[Aib]NWLTRQRY-NH2 [Compound 184] )
9.55

FYI, the data here is from patent US20240247080A1.
